assay-target: T1, mouse MAdCAM expressed on cells (mouse, UniProt Q61826 22-405)
T1 construct: whole, on cells
T1 sequence (looked up): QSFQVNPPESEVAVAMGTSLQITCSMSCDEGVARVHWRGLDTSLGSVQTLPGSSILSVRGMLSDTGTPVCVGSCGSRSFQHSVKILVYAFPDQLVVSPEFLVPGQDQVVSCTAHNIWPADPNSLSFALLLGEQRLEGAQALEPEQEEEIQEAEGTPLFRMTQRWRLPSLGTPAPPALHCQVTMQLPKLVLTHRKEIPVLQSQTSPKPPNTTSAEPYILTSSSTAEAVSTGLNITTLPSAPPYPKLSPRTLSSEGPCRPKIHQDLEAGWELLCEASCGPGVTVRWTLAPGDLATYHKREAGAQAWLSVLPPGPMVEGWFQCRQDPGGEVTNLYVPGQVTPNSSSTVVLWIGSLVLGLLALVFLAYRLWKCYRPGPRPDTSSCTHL
experiment-notes: cell binding
recorded-endpoint: binding result

Consider the following illustrative entries.
MAdCAM Antibody Table 2 clone 54 (antibody, V domains shown, IgG format) VH: QVQLVQSGAEVKKPGSSVKVSCKASGGTLSRYGVSWVRQAPGQGLEWMGGIIPIFGTTNYAQKFQGRVTITADESTSTAYMELSSLRSEDTAVYYCARDRVYYDSSGYPTWYFDLWGRGTLVTVSS VL: EIVMTQSPATLSVSPGERATLSCRASQSVSSSYLAWYQQKPGQAPRLLIYGASTRATGIPARFSGSGSGTEFTLTISSLQSEDFAVYYCQQYGSSPITFGQGTKVEIK : no binding
MAdCAM Antibody Table 2 clone 40 (antibody, V domains shown, IgG format) VH: QVQLVQSGAEVKKPGASVKVSCKASGYTLTTWYMYWVRQAPGQGLEWMGWINPNRGATNYAQKFQGRVTMTRDTSTSTVYMELSSLRSEDTAVYYCAKGDLWGAMDVWGQGTLVTVSS VL: DIQMTQSPSSLSASVGDRVTITCRASDNIGSWLAWYQQKPGKAPKLLIYAASSLQSGVPSRFSGSGSGTDFTLTISSLQPEDFATYYCQQGYSTPPTFGQGTKVEIK : no binding
MAdCAM Antibody Table 2 clone 20 (antibody, V domains shown, IgG format) VH: EVQLLESGGGLVQPGGSLRLSCAASGFTFSDSAMHWVRQAPGKGLEWVSAISGSGSTIYYADSVKGRFTISRDNSKNTLYLQMNSLRAEDTAVYYCVSDIAVAGHWYFDLWGRGTLVTVSS VL: DIQMTQSPSSLSASVGDRVTITCRASQSISTFLNWYQQKPGKAPKLLIYAASRLEGGVPSRFSGSGSGTDFTLTISSLQPEDFATYYCQQANSFPLTFGPGTKVDIK : no binding
MAdCAM Antibody Table 2 clone 6 (antibody, V domains shown, IgG format) VH: EVQLLESGGGLVQPGGSLRLSCAASGFTFNNYAFHWVRQAPGKGLEWVSRINSYGTSTTYADSVKGRFTISRDNSKNTLYLQMNSLRAEDTAVYYCAREGPVAGYWYFDLWGQGTLVTVSS VL: DIQMTQSPSSLSASVGDRVTITCRASQIIGTNLAWYQQKPGKAPKLLIYGASSLQSGVPSRFSGSGSGTDFTLTISSLQPEDFATYYCQQSYRLPFTFGQGTKVEIK : no binding
MAdCAM Antibody Table 2 clone 72 (antibody, V domains shown, IgG format) VH: QVQLVQSGAEVKKPGASVKVSCKASGYTFTSYYMHWVRQAPGQGLEWMGVINPIGGTTTYAQKFQGRVTMTRDTSTSTVYMELSSLRSEDTAVYYCASGAPSYYYYGMDVWGQGTLVTVSS VL: DIQMTQSPSSLSASVGDRVTITCRASQSISSYLNWYQQKPGKAPKLLIYGTSYLATGVPSRFSGSGSGTDFTLTISSLQPEDFATYYCQQSYSTPLTFGQGTKVEIK : no binding

Could you tell me binding result for each of these binders? They are listed below.
1. MAdCAM Antibody Table 2 clone 19 (antibody, V domains shown, IgG format) VH: EVQLLESGGGLVQPGGSLRLSCAASGFTFEDYAMHWVRQAPGKGLEWVSYLNSDGGSTSYADSVKGRFTISRDNSKNTLYLQMNSLRAEDTAVYYCAKDYCTNGVCAFDYWGQGTLVTVSS VL: DIQMTQSPSSLSASVGDRVTITCRASQSISTYLNWYQQKPGKAPKLLIYDASNLETGVPSRFSGSGSGTDFTLTISSLQPEDFATYYCQQSYTIPITFGQGTRLEIK
2. MAdCAM Antibody Table 2 clone 79 (antibody, V domains shown, IgG format) VH: EVQLLESGGGLVKPGGSLRLSCAASGFTFDDYAMHWVRQAPGKGLEWVASITSSSAFIDYAASVKGRFTISRDDSKNTLYLQMNSLKTEDTAVYYCARERVDWNSYFDLWGRGTLVTVSS VL: EIVMTQSPATLSVSPGERATLSCRASQGISNSYLAWYQQKPGQAPRLLIYGASTRATGIPARFSGSGSGTEFTLTISSLQSEDFAVYYCQQYYTYPPTFGPGTKVDIK

// result
no binding
binds

Could you tell me binding result for each of these binders? They are listed below.
1. MAdCAM Antibody Table 2 clone 60 (antibody, V domains shown, IgG format) VH: EVQLLESGGGLVQPGGSLRLSCAASGFTFSDHGMHWVRQAPGKGLEWVSVIYGGESTYYADSVKGRFTISRDNSKNTLYLQMNSLRAEDTAVYYCARDPAVAGGGIFDYWGQGTLVTVSS VL: DIQMTQSPSSLSASVGDRVTITCRASQGISNYLAWYQQKPGKAPKLLIYDASNLETGVPSRFSGSGSGTDFTLTISSLQPEDFATYYCQQSYSTCYTFGQGTKLEIK
2. MAdCAM Antibody Table 2 clone 39 (antibody, V domains shown, IgG format) VH: QVQLVQSGAEVKKPGASVKVSCKASGYTFTSYYMHWVRQAPGQGLEWMAWMNPNSGNTGYAQKFQGRVTMTRDTSTSTVYMELSSLRSEDTAVYYCARDYDFWSGSLGYWGQGTLVTVSS VL: DIQMTQSPSSLSASVGDRVTITCRASQGISNYLAWYQQKPGKAPKLLIYAASSLQSGVPSRFSGSGSGTDFTLTISSLQPEDFATYYCQQSYSTPWTFGQGTKVEIK
3. MAdCAM Antibody Table 2 clone 74 (antibody, V domains shown, IgG format) VH: QVQLVQSGAEVKKPGASVKVSCKASGYTFTGYYMHWVRQAPGQGLEWMGIINPSGGNTKYAQKFQGRVTMTRDTSTSTVYMELSSLRSEDTAVYYCTTADYYYYMDVWGKGTTVTVSS VL: DIQMTQSPSSLSASVGDRVTITCRASQGISNYLAWYQQKPGKAPKLLIYAASSLQSGVPSRFSGSGSGTDFTLTISSLQPEDFATYYCQQYYSNADFGQGTKVEIK

// result
["binds", "no binding", "no binding"]
